target: cGMP-dependent protein kinase (Eimeria tenella, UniProt Q8MMZ8)
Sequence (Q8MMZ8 whole entry): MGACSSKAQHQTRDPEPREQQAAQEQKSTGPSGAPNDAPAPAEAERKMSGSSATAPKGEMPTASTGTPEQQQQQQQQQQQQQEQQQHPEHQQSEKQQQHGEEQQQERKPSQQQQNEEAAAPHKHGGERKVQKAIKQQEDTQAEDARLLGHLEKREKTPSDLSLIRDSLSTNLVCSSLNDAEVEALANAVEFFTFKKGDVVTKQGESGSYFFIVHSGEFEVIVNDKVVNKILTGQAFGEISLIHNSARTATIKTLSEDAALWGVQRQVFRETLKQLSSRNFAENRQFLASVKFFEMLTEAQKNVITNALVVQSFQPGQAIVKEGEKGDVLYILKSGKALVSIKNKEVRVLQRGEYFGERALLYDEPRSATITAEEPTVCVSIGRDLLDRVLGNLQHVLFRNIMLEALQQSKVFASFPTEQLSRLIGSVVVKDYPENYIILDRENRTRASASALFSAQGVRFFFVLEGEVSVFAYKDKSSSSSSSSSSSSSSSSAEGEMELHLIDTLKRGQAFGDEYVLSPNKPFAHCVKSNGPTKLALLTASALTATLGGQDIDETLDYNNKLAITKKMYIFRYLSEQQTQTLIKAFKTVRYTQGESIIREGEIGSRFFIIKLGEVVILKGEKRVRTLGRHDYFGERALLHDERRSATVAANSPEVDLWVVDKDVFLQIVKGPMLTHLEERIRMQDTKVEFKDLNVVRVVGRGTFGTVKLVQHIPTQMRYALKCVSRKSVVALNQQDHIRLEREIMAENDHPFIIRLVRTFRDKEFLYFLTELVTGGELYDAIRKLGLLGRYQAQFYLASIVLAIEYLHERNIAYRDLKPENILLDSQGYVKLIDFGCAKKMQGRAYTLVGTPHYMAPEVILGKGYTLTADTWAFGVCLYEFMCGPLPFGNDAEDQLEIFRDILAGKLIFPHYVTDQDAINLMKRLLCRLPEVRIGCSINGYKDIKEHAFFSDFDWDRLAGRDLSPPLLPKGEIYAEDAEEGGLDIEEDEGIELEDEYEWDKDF
attribute measured: IC50 (nM)

Guide cases for IC50, answers given:
input smiles	unit descriptor	IC50
C[C@H](Nc1nccc(-c2c(-c3ccc(F)cc3)nc3cc(CN(C)[C@@H](C)C(=O)N(C)C)ccn23)n1)c1ccccc1	nM	0.26
CN(C)Cc1ccn2c(-c3ccnc(NCC(C)(C)C)n3)c(-c3ccc(F)cc3)nc2c1	nM	0.28

A = CC(C)NCc1ccn2c(-c3ccnc(N[C@@H](C)c4ccccc4)n3)c(-c3ccc(F)cc3)nc2c1
B = CC(C)Nc1nccc(-c2c(-c3ccc(F)cc3)nc3cc(CN(C)C(C)C)ccn23)n1
C = CC(C)Nc1nccc(-c2c(-c3ccc(F)cc3)nc3cc(CN(C)C)ccn23)n1
D = CC(C)N(C)Cc1ccn2c(-c3ccnc(NCC(C)(C)C)n3)c(-c3ccc(F)cc3)nc2c1
Prompt: Let's sort these by IC50, smallest first. Go ahead? Please write the labels in the order that was asked for.
Response: A, C, D, B

----------
tested on: Eimeria acervulina; test: Anticoccidial activity against Eimeria acervulina infected Chick assessed as reduction in oocyst production at 25 ppm after 7 days; assay type: functional; parameters: scale not given: the % may be the effect or the level left
attribute measured: Activity

compound	result value
C[C@H](Nc1nccc(-c2c(-c3ccc(F)cc3)nc3cc(CN(C)CC4CCCO4)ccn23)n1)c1ccccc1 (some centres undefined)	<50%
CC(C)(C)CNc1nccc(-c2c(-c3ccc(F)cc3)nc3cc(CN4CCC4)ccn23)n1	<0%
CC(C)N(C)Cc1ccn2c(-c3ccnc(N[C@@H](C)c4ccccc4)n3)c(-c3ccc(F)cc3)nc2c1	>80%

// Activity lookup, compound = CC(C)N(C)Cc1ccn2c(-c3ccnc(NCC(C)(C)C)n3)c(-c3ccc(F)cc3)nc2c1 , result: <50%

----------
tested on: Eimeria acervulina; experiment: Anticoccidial activity against Eimeria acervulina infected Chick assessed as reduction in oocyst production at 25 ppm after 7 days; type: functional; design: scale not given: the % may be the effect or the level left
The entries below come with measured Activity values attached.

input smiles	system name	result value
CN(C)Cc1ccn2c(-c3ccnc(NCc4ccccc4)n3)c(-c3ccc(F)cc3)nc2c1	Eimeria acervulina	>80%
CC(C)Nc1nccc(-c2c(-c3ccc(F)cc3)nc3cc(CN(C)C)ccn23)n1	Eimeria acervulina	>80%
CC(C)NCc1ccn2c(-c3ccnc(N[C@@H](C)c4ccccc4)n3)c(-c3ccc(F)cc3)nc2c1	Eimeria acervulina	>80%

Now for the compound whose Activity we want.
// Activity lookup, compound = C[C@H](Nc1nccc(-c2c(-c3ccc(F)cc3)nc3cc(CN(C)CCO)ccn23)n1)c1ccccc1 , result: <50%

----------
The entries below come with measured Activity values attached.
tested on: Eimeria tenella; experiment: Anticoccidial activity against Eimeria tenella infected Chick assessed as reduction in oocyst production at 25ppm after 7 days; format: functional; set-up: scale not given: the % may be the effect or the level left

compound	system name	Activity
C[C@H](Nc1nccc(-c2c(-c3ccc(F)cc3)nc3cc(CN(C)CC4CCCO4)ccn23)n1)c1ccccc1 (some centres not stated)	Eimeria tenella	>80%
CC(C)(C)CNc1nccc(-c2c(-c3ccc(F)cc3)nc3cc(CN4CCC4)ccn23)n1	Eimeria tenella	<0%
CC(C)Nc1nccc(-c2c(-c3ccc(F)cc3)nc3cc(CN(C)C)ccn23)n1	Eimeria tenella	>80%
CN(C)Cc1ccn2c(-c3ccnc(NCc4ccccc4)n3)c(-c3ccc(F)cc3)nc2c1	Eimeria tenella	>80%
CC(C)NCc1ccn2c(-c3ccnc(N[C@@H](C)c4ccccc4)n3)c(-c3ccc(F)cc3)nc2c1	Eimeria tenella	>80%
CC(C)N(C)Cc1ccn2c(-c3ccnc(N[C@@H](C)c4ccccc4)n3)c(-c3ccc(F)cc3)nc2c1	Eimeria tenella	<50%
CC(C)N(C)Cc1ccn2c(-c3ccnc(NCC(C)(C)C)n3)c(-c3ccc(F)cc3)nc2c1	Eimeria tenella	<50%
CCN(C)Cc1ccn2c(-c3ccnc(NCC(C)(C)C)n3)c(-c3ccc(F)cc3)nc2c1	Eimeria tenella	>80%
C[C@H](Nc1nccc(-c2c(-c3ccc(F)cc3)nc3cc(CN(C)CCO)ccn23)n1)c1ccccc1	Eimeria tenella	>80%
CN(C)Cc1ccn2c(-c3ccnc(NCC(C)(C)C)n3)c(-c3ccc(F)cc3)nc2c1	Eimeria tenella	>80%

// Activity lookup, compound = C[C@H](Nc1nccc(-c2c(-c3ccc(F)cc3)nc3cc(CN(C)[C@@H](C)C(=O)N(C)C)ccn23)n1)c1ccccc1 , result: 50%

// Activity lookup, compound = C[C@H](Nc1nccc(-c2c(-c3ccc(F)cc3)nc3cc(CN(C)CCNS(C)(=O)=O)ccn23)n1)c1ccccc1 , result: >80%

----------
tested on: Eimeria acervulina; test: Anticoccidial activity against Eimeria acervulina infected Chick assessed as reduction in oocyst production at 50 ppm after 7 days; assay type: functional; parameters: scale not given: the % may be the effect or the level left
The entries below come with measured Activity values attached.

Guide cases for Activity, answers given:
input smiles	Activity
C[C@H](Nc1nccc(-c2c(-c3ccc(F)cc3)nc3cc(CN(C)CC(=O)N4CCC4)ccn23)n1)c1ccccc1	<50%
CCOC(=O)N1CCN(Cc2ccn3c(-c4ccnc(N[C@@H](C)c5ccccc5)n4)c(-c4ccc(F)cc4)nc3c2)CC1	<50%
C[C@H](Nc1nccc(-c2c(-c3ccc(F)cc3)nc3cc(CN(C)C(CO)CO)ccn23)n1)c1ccccc1	<50%
C[C@H](Nc1nccc(-c2c(-c3ccc(F)cc3)nc3cc(CN(C)CCN4CCC4)ccn23)n1)c1ccccc1	<50%
CCN(C)Cc1ccn2c(-c3ccnc(N[C@@H](C)c4ccccc4)n3)c(-c3ccc(F)cc3)nc2c1	>80%

Now for the compound whose Activity we want.
// Activity lookup, compound = C[C@H](Nc1nccc(-c2c(-c3ccc(F)cc3)nc3cc(CN(C)CC(=O)N4CCCC4)ccn23)n1)c1ccccc1 , result: <50%

----------
target: cGMP-dependent protein kinase (Eimeria tenella, UniProt Q8MMZ8)
attribute measured: IC50 (nM)

input smiles	result value
CN(C)Cc1ccn2c(-c3ccnc(NC(C)(C)C)n3)c(-c3ccc(F)cc3)nc2c1	0.31

A = CC(C)N(C)Cc1ccn2c(-c3ccnc(N[C@@H](C)c4ccccc4)n3)c(-c3ccc(F)cc3)nc2c1
B = C[C@H](Nc1nccc(-c2c(-c3ccc(F)cc3)nc3cc(CN(C)CC(=O)N4CCC4)ccn23)n1)c1ccccc1
Prompt: Hi team, can someone confirm which has the larger IC50: A or B ? Thanks. Let me know the label of the one you choose.
Response: B
(B: 0.57 nM, A: 0.11 nM)
